- STUDY_SYSTEM: T1, TGFβ1 (R&D Systems)
- T1 construct: also called TGFB1
- T1 sequence (P01137 279-390): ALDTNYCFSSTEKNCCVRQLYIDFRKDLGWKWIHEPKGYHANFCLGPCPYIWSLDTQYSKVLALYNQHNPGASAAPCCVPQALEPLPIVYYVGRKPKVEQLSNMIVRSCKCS
- PROTOCOL: single point SPR
Documented pKd across a set of binders
For clarity, pKd is expressed as the negative log10 of concentration in mol/L.

Can-SL501-VH3 D108E / Can-SL501-VL2 (antibody, V domains shown) VH: EVQLVESGGDLVKPGGSLRLSCVASGFTFSSYGMHWVRQAPGKELEWVAVISYDGSIKYYADAVKGRFTISRDNAKNTLYLQMNSLRAEDTAVYYCARTGEYSGYDTEPQYSWGQGTTVTVSS VL: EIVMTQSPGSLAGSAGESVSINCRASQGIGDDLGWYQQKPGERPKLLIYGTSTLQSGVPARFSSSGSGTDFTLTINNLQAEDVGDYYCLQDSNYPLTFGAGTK	9.47

// next item, pKd requested
Query :: Using the record for Can-SL501-VH3 Q110K / Can-SL501-VL2 (antibody, V domains shown) VH: EVQLVESGGDLVKPGGSLRLSCVASGFTFSSYGMHWVRQAPGKELEWVAVISYDGSIKYYADAVKGRFTISRDNAKNTLYLQMNSLRAEDTAVYYCARTGEYSGYDTDPKYSWGQGTTVTVSS VL: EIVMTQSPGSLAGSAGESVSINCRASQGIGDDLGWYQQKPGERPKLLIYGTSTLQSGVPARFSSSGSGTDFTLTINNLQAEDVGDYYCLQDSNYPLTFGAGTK , report its pKd.
Result :: 8.29
